Listed here are molecules together with their documented MIC.
tested on: S. aureus GC 4536; test: Broth dilution MIC; format: cell-based; details: Staphylococcus aureus, GC4536; S. aureus GC 4536; Mueller-Hinton broth, 18 hours at 35° C.; read-out: Antimicrobial Activity (MIC)

CO[C@H]1C(O[C@H](C(NCCCNC(=O)C(NC(=O)C(NC(=O)NC(C(=O)O)C(C)C)C2CCNC(=N)N2)C(O)C(C)C)C(=O)O)[C@H]2O[C@@H](n3ccc(=O)[nH]c3=O)[C@H](O)[C@@H]2O)O[C@H](CNCc2ccccc2)[C@@H]1O (some centres unmarked) [Example 20A]; > 32 µg/mL

In the following, a different molecule is considered.
What does the data say about its MIC? Entry: CCCCCCCCCCCCN(CCCNC(=O)C(NC(=O)C(NC(=O)NC(C(=O)O)C(C)C)C1CCNC(=N)N1)C(O)C(C)C)C(C(=O)O)[C@@H](OC1O[C@H](CN)[C@H](O)[C@H]1OC)[C@H]1O[C@@H](n2ccc(=O)[nH]c2=O)[C@H](O)[C@@H]1O (some centres unmarked)
> 32 µg/mL

###

Listed here are molecules together with their documented MIC.
test system: CNS GC 4538; assay: Broth dilution MIC; format: cell-based; details: CNS GC 4538; Mueller-Hinton broth, 18 hours at 35° C.; read-out: Antimicrobial Activity (MIC)

CO[C@H]1C(O[C@H](C(NCCCNC(=O)C(NC(=O)C(NC(=O)NC(C(=O)O)C(C)C)C2CCNC(=N)N2)C(O)C(C)C)C(=O)O)[C@H]2O[C@@H](n3ccc(=O)[nH]c3=O)[C@H](O)[C@@H]2O)O[C@H](CNCc2ccc(-c3ccccc3)cc2)[C@@H]1O (some centres unmarked) [Example 19A]; > 32 µg/mL

In the following, a different molecule is considered.
What does the data say about its MIC? Entry: CCCCCN1C(=O)C([C@@H](OC2O[C@H](CN)[C@H](O)[C@H]2OC)[C@H]2O[C@@H](n3ccc(=O)[nH]c3=O)[C@H](O)[C@@H]2O)N(CCCNC(=O)C(NC(=O)C(NC(=O)NC(C(=O)O)C(C)C)C2CCNC(=N)N2)C(O)C(C)C)C1=O (some centres unmarked) [Example 2]
> 32 µg/mL

###

tested on: E. faecalis GC 842; assay: Broth dilution MIC; format: cell-based; settings: Enterococcus faecalis, GC842; E. faecalis GC 842; Mueller-Hinton broth, 18 hours at 35° C.; read-out: Antimicrobial Activity (MIC)
observed-property: MIC

CCCCCCN1C(=O)C([C@@H](OC2O[C@H](CN)[C@H](O)[C@H]2OC)[C@H]2O[C@@H](n3ccc(=O)[nH]c3=O)[C@H](O)[C@@H]2O)N(CCCNC(=O)C(NC(=O)C(NC(=O)NC(C(=O)O)C(C)C)C2CCNC(=N)N2)C(O)C(C)C)C1=O (some centres unmarked); > 32 µg/mL

In the following, a different compound is considered.
What does the data say about its MIC? Entry: COC1C(O[C@H](C2C(=O)N(c3ccc(F)cc3)C(=O)N2CCCNC(=O)C(NC(=O)C(NC(=O)NC(C(=O)O)C(C)C)C2CCNC(=N)N2)C(O)C(C)C)[C@H]2O[C@@H](n3ccc(=O)[nH]c3=O)C(O)C2O)O[C@H](CNC(=O)Nc2ccc(F)cc2)C1O (some centres unmarked)
> 32 µg/mL
